# TESTED_ON: recombinant human Nav1.7 (Homo sapiens (Human))
# ASSAY_COMMENT: FRET-based membrane potential assay, recombinant human sodium channel Nav1.7
# Format: cell-based
# EXPERIMENTAL_CONDITIONS: HEK293 cells stably expressing recombinant human Nav1.7; veratridine + scorpion venom depolarization; read-out: FRET-Membrane Potential Nav1.7 IC50
IC50 strictly under 2000 nM means Yes; at 2000 nM or over means No.

CS(=O)(=O)c1ccc(Oc2ccc3nc(C(=O)N4CCNCC4)ccc3c2)cc1 [Example 214] : No
O=C1CC(NC(=O)c2ccc3cc(Oc4ccc(C(F)(F)F)cn4)ccc3n2)C1 [Example 432] : No
O=C(NCCN1CCCC1)c1ccc2cc(Oc3ccc(C(F)(F)F)cn3)ccc2n1 [Example 174] : Yes
O=C(c1ccc2cc(Oc3ccc(C(F)(F)F)cn3)ccc2n1)N1C[C@H](CO)C[C@H](CO)C1 [Example 307] : No
CCN(CC)C(=O)CNC(=O)c1ccc2cc(Oc3ccc(C(F)(F)F)nc3)ccc2n1 [Example 517] : Yes
O=C(NCCC(=O)N1CCCC1)c1ccc2cc(Oc3ccc(C(F)F)cn3)ccc2n1 [Example 460] : No

Request: Bench note: check whether O=C(c1ccc2cc(Oc3ccc(C(F)(F)F)cn3)ccc2n1)N1CC2CNCCN2C1=O (centres unmarked) [Example 189] shows IC50 below 2000 nM
Result: No

Request: Do the same for O=C(NC1CCS(=O)(=O)CC1)c1ccc2cc(Oc3ccc(C(F)(F)F)nc3)ccc2n1 [Example 535] please
Result: No

----------
Kindly supply the reported IC50 values for the records listed here.
# TESTED_ON: recombinant human Nav1.7 (Homo sapiens (Human))
# ASSAY_COMMENT: FRET-based membrane potential assay, recombinant human sodium channel Nav1.7
# Format: cell-based
# EXPERIMENTAL_CONDITIONS: HEK293 cells stably expressing recombinant human Nav1.7; veratridine + scorpion venom depolarization; read-out: FRET-Membrane Potential Nav1.7 IC50
Numbers only, in nM.

Example results:
O=C(NCC1CN(C(=O)c2ccc3cc(Oc4ccc(C(F)(F)F)cn4)ccc3n2)CC1F)OCc1ccccc1 (centres unmarked) : 858
N#Cc1ccc(Oc2ccc3nc(C(=O)NCc4ccncc4)ccc3c2)cc1 : 885
COC[C@@H]1CN(C(=O)c2ccc3cc(Oc4ccc(C(F)(F)F)nc4)ccc3n2)CCN1 : 382
CCN(CC)C(=O)CCNC(=O)c1ccc2cc(Oc3ccc(C(F)(F)F)nc3)ccc2n1 : 1080
O=C(c1ccc2cc(Oc3ccc(C(F)(F)F)cn3)ccc2n1)N1CCCC(F)(F)C1 : 6930
O=C(NCCC(=O)N1CCOCC1)c1ccc2cc(Oc3ccc(C(F)(F)F)cn3)ccc2n1 : 1400

Please state, for each entry, its recorded IC50.
1. COCCOCC1(F)CCN(C(=O)c2ccc3cc(Oc4ccc(C(F)(F)F)cn4)ccc3n2)C1 (centres unmarked)
2. O=C(NC1(CO)CC1)c1ccc2cc(Oc3ccc(C(F)(F)F)cn3)ccc2n1

Result:
[802, 3000]

----------
# TESTED_ON: recombinant human Nav1.8 (Homo sapiens (Human))
# ASSAY_COMMENT: FRET-based membrane potential assay, recombinant human sodium channel Nav1.8
# Assay type: cell-based
# EXPERIMENTAL_CONDITIONS: HEK293 cells stably expressing recombinant human Nav1.8; veratridine + scorpion venom depolarization
Kindly supply the reported pIC50 values for the records listed here.
Numbers only, as −log10 of the molar value.

Solved entries:
CS(=O)(=O)CCCNC(=O)c1ccc2cc(Oc3ccc(C(F)(F)F)cn3)ccc2n1 : 5.37
O=C(NCC(F)(F)F)c1ccc2cc(Oc3ccc(C(F)(F)F)cn3)ccc2n1 : 6.17
CCN1CC(NC(=O)c2ccc3cc(Oc4ccc(C(F)F)cn4)ccc3n2)CC1=O (centres unmarked) : 6.30

Count: 7. Required value per item: pIC50.
1. CN1CC(NC(=O)c2ccc3cc(Oc4ccc(C(F)(F)F)cn4)ccc3n2)CC1=O (single isomer, unassigned) [Example 73]
2. N[C@@H]1[C@H]2CN(C(=O)c3ccc4cc(Oc5ccc(C(F)(F)F)cn5)ccc4n3)C[C@@H]12
3. O=C1C[C@@H](NC(=O)c2ccc3cc(Oc4ccc(C(F)(F)F)cn4)ccc3n2)CCN1
4. O=C(c1ccc2cc(Oc3ccc(C(F)(F)F)cn3)ccc2n1)N1CCNCC(F)(F)C1
5. O=C(NC1CCS(=O)(=O)C1)c1ccc2cc(Oc3ccc(C(F)(F)F)cn3)ccc2n1 (centres unmarked)
6. O=C(c1ccc2cc(Oc3ccc(C(F)(F)F)cn3)ccc2n1)N1CCN(CCO)CC1
7. C[C@@H]1CN(C(=O)c2ccc3cc(Oc4ccc(C(F)F)cn4)ccc3n2)CCN1

Result:
[5.77, 5.85, 6.67, 5.56, 6.19, 5.37, 5.72]

----------
So I've got a bunch of molecules here, and I need their IC50 values.
# TESTED_ON: recombinant human Nav1.7 (Homo sapiens (Human), UniProt Q15858)
# Sequence (Q15858 whole entry): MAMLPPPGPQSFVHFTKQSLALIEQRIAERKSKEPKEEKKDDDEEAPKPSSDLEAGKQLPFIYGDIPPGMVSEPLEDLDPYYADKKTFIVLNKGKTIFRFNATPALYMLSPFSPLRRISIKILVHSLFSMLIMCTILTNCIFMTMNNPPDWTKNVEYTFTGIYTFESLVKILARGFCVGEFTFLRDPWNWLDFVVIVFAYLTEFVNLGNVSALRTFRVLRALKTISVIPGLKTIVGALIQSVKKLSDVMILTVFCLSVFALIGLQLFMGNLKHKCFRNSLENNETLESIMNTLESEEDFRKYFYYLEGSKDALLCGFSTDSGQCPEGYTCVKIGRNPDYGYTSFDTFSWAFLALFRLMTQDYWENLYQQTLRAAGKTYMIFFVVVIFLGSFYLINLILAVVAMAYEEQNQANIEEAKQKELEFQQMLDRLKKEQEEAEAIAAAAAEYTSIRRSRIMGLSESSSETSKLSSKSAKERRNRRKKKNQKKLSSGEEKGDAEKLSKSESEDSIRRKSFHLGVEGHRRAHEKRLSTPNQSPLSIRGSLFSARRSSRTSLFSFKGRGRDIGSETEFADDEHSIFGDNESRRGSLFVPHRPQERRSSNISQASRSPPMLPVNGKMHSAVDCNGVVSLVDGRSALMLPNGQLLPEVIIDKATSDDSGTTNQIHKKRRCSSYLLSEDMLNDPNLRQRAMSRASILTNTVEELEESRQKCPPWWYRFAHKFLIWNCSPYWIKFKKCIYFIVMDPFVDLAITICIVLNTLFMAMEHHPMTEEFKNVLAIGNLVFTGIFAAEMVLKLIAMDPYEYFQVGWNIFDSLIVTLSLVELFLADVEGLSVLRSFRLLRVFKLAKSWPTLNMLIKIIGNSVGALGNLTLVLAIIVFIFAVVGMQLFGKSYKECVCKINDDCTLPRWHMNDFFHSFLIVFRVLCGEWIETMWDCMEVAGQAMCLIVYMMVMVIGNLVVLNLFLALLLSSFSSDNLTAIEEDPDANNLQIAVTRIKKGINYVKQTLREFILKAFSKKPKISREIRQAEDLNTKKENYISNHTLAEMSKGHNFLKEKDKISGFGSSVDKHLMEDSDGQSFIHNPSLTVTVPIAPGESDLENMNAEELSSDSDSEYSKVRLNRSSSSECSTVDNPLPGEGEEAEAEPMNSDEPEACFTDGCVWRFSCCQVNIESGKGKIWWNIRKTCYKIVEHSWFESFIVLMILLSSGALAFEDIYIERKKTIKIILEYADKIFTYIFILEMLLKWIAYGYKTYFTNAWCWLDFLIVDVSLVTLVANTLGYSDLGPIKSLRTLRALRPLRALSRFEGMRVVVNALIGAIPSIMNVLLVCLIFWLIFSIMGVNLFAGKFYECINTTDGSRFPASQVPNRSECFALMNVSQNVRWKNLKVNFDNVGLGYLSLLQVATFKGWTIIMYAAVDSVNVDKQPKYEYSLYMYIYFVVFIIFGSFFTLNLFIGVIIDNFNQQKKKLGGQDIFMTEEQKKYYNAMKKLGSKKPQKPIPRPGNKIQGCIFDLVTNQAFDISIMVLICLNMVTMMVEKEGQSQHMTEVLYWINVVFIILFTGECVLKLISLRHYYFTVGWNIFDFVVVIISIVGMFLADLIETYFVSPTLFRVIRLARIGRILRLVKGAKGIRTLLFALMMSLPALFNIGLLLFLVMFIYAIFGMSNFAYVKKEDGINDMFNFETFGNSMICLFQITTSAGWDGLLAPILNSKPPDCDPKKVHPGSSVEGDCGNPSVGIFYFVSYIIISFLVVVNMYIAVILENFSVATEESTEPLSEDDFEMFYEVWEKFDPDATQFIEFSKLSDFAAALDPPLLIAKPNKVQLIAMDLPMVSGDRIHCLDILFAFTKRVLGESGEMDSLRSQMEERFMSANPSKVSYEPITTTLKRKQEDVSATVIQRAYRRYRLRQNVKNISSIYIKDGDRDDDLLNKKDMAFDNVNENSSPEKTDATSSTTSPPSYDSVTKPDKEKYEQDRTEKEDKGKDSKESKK
# ASSAY_COMMENT: FRET-based membrane potential assay, recombinant human sodium channel Nav1.7
# Format: cell-based
# EXPERIMENTAL_CONDITIONS: HEK293 cells stably expressing recombinant human Nav1.7; veratridine + scorpion venom depolarization; read-out: FRET-Membrane Potential Nav1.7 IC50
Give bare numbers, in nM.

List reported IC50 for each of these molecules:
1. N#Cc1ccc(Oc2ccc3nc(C(=O)NCCCN4CCOCC4)ccc3c2)cc1
2. Cc1nc(CN2CCN(C(=O)c3ccc4cc(Oc5ccc(C(F)(F)F)cn5)ccc4n3)CC2)co1
3. CC(C)NC(=O)CN(C)C(=O)c1ccc2cc(Oc3ccc(C(F)(F)F)nc3)ccc2n1
4. CN(C)C(=O)[C@@H]1CCCN1C(=O)c1ccc2cc(Oc3ccc(C(F)(F)F)cn3)ccc2n1

Result:
1. 1230
2. 3570
3. 6650
4. 5230

----------
So I've got a bunch of molecules here, and I need their pIC50 values.
# TESTED_ON: recombinant human Nav1.8 (Homo sapiens (Human), UniProt Q9Y5Y9)
# Sequence (Q9Y5Y9 whole entry): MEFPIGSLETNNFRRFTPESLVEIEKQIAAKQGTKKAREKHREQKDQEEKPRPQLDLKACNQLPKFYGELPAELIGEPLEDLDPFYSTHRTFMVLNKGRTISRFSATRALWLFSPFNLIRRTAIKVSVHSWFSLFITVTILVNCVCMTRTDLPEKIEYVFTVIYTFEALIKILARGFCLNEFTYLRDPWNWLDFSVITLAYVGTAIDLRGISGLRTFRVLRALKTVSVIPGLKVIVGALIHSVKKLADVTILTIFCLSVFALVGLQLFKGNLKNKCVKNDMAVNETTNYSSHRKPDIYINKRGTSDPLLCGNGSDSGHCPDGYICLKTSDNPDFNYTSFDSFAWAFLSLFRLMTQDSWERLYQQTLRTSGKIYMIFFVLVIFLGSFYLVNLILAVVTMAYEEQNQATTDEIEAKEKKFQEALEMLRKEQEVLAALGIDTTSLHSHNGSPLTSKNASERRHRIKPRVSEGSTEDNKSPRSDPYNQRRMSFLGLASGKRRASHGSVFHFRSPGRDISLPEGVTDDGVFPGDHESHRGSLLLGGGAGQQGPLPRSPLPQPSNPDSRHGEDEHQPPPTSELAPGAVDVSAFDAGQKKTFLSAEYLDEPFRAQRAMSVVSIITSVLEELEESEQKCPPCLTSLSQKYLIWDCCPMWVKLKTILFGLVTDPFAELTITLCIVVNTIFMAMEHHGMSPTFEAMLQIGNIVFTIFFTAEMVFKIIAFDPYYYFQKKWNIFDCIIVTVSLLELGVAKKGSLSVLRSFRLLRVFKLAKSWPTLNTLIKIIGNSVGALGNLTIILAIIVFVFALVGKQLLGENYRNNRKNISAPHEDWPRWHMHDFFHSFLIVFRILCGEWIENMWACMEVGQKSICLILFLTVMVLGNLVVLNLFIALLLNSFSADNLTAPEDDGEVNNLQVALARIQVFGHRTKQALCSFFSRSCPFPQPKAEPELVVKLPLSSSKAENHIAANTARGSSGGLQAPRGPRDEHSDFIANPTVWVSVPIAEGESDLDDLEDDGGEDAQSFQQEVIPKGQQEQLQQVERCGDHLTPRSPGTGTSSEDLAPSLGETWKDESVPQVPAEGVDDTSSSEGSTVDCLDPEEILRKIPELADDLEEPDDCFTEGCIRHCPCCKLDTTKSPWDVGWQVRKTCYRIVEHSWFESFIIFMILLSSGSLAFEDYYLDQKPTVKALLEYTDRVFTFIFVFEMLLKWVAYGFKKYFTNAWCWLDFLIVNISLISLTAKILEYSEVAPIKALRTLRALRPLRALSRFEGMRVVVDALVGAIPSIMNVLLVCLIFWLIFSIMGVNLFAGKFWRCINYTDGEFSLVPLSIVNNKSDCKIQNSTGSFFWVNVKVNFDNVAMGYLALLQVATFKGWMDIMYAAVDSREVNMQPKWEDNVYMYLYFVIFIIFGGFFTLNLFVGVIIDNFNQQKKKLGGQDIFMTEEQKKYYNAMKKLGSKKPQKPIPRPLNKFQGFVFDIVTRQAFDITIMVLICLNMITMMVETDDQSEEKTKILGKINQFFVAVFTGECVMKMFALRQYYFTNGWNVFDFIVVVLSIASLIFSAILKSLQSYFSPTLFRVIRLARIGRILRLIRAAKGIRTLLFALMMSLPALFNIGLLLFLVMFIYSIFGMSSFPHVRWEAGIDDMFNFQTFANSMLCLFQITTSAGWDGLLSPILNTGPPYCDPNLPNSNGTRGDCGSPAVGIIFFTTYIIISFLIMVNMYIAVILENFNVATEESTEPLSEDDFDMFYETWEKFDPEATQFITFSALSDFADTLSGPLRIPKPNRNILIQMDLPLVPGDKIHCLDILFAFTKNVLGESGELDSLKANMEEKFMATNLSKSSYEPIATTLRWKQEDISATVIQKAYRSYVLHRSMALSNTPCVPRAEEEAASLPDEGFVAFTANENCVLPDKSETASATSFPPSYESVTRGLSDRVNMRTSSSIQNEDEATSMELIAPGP
# ASSAY_COMMENT: FRET-based membrane potential assay, recombinant human sodium channel Nav1.8
# Type: cell-based
Give bare numbers, as −log10 of the molar value.

O=C(c1ccc2cc(Oc3ccc(C(F)(F)F)cn3)ccc2n1)N1CC(O)C1 [Example 18] : 5.27
O=C(NCC(=O)N1CCCC1)c1ccc2cc(Oc3ccc(C(F)(F)F)cn3)ccc2n1 [Example 44] : 6.03
O=C(c1ccc2cc(Oc3ccc(C(F)(F)F)cn3)ccc2n1)N1CC(N2CCOCC2)C1 [Example 6] : 5.34
O=C(c1ccc2cc(Oc3ccc(C(F)(F)F)cn3)ccc2n1)N1CC(N2CC[C@@H](F)C2)C1 [Example 70] : 6.09
CN(C)C(=O)CNC(=O)c1ccc2cc(Oc3ccc(C(F)(F)F)cn3)ccc2n1 [Example 33] : 6.13

Parameters: items (list). Returns: pIC50 for each item.
1. COC[C@@H]1CN(C(=O)c2ccc3cc(Oc4ccc(C(F)(F)F)nc4)ccc3n2)CCN1 [Example 64]
2. COC[C@H]1CN(C(=O)c2ccc3cc(Oc4ccc(C(F)(F)F)nc4)ccc3n2)CCN1 [Example 63]
3. CC[C@@H]1CN(C(=O)c2ccc3cc(Oc4ccc(C(F)F)cn4)ccc3n2)CCN1 [Example 55]
4. NC1CN(C(=O)c2ccc3cc(Oc4ccc(C(F)(F)F)nc4)ccc3n2)C1 [Example 66]

Result:
6.31
5.94
5.68
5.93

----------
# TESTED_ON: recombinant human Nav1.7 (Homo sapiens (Human))
# ASSAY_COMMENT: FRET-based membrane potential assay, recombinant human sodium channel Nav1.7
# Type: cell-based
# EXPERIMENTAL_CONDITIONS: read-out: FRET-Membrane Potential Nav1.7 IC50
ENDPOINT_NAME: pIC50
One number for each entry, as −log10 of the molar value.

O=C(c1ccc2cc(Oc3ccc(C(F)(F)F)cn3)ccc2n1)N1CCNC[C@@H]1C(F)F : 5.71
N#Cc1ccc(Oc2ccc3nc(C(=O)NCCN4CCOCC4)ccc3c2)cc1 : 5.76
O=C(c1ccc2cc(Oc3ccc(C(F)(F)F)cn3)ccc2n1)N1CC(N2CCNCC2)C1 : 4.78

Now consider the entry below.
Request: What value of pIC50 has been recorded for this entry: `O=C(c1ccc2cc(Oc3ccc(C(F)(F)F)cn3)ccc2n1)N1CC(N2CC[C@H](F)C2)C1`
Result: 5.74

----------
# TESTED_ON: recombinant human Nav1.7 (Homo sapiens (Human))
# ASSAY_COMMENT: FRET-based membrane potential assay, recombinant human sodium channel Nav1.7
# Assay type: cell-based
# EXPERIMENTAL_CONDITIONS: HEK293 cells stably expressing recombinant human Nav1.7; veratridine + scorpion venom depolarization; read-out: FRET-Membrane Potential Nav1.7 IC50
Flag rule - IC50 less than 2000 nM flags yes (1); the remaining entries get no (0).

O=C(c1ccc2cc(Oc3ccc(C(F)(F)F)cn3)ccc2n1)N1CC[C@H](NS(=O)(=O)c2ccc(C(F)(F)F)cc2)[C@H]1c1ccccc1 [Example 225] : no (0)
CC(=O)Nc1nc(C)c(S(=O)(=O)N2CCN(C(=O)c3ccc4cc(Oc5ccc(C(F)(F)F)cn5)ccc4n3)CC2)s1 [Example 388] : no (0)

Request: Is IC50 strictly under 2000 nM for the entry COC(=O)CS(=O)(=O)N1CCN(C(=O)c2ccc3cc(Oc4ccc(C(F)(F)F)cn4)ccc3n2)CC1 [Example 382] ?
Result: yes (1)

Request: Follow-up item: O=C(c1ccc2cc(Oc3ccc(C(F)(F)F)cn3)ccc2n1)N1CCNC(C(F)(F)F)C1 (stereo not drawn) [Example 20]
Result: no (0)

Request: Try this compound too: C[C@H]1N(C(=O)c2ccc3cc(Oc4ccc(C(F)(F)F)cn4)ccc3n2)CC1(C)C [Example 197]
Result: no (0)

Request: Proceed to O=C(NC1C[S+]([O-])C1)c1ccc2cc(Oc3ccc(C(F)(F)F)cn3)ccc2n1 (stereo not drawn) [Example 503]
Result: yes (1)

Request: Next up: N#Cc1ccc(Oc2ccc3nc(C(=O)NCc4cccc(OC(F)(F)F)c4)ccc3c2)cc1 [Example 102]
Result: no (0)

Request: // next record O=C(c1ccc2cc(Oc3ccc(C(F)(F)F)cn3)ccc2n1)N1CCN(S(=O)(=O)C2CCOC2)CC1 (stereo not drawn) [Example 381]
Result: no (0)

Request: Now consider O=C(NCCC(=O)N1CCOCC1)c1ccc2cc(Oc3ccc(C(F)(F)F)nc3)ccc2n1 [Example 515] .
Result: no (0)

Request: Could you do the same for O=C(NCC1CCO1)c1ccc2cc(Oc3ccc(C(F)(F)F)cn3)ccc2n1 (stereo not drawn) [Example 37] , please?
Result: yes (1)

Request: For CC(C)S(=O)(=O)N1CCN(C(=O)c2ccc3cc(Oc4ccc(C(F)(F)F)cn4)ccc3n2)CC1 [Example 177] then?
Result: no (0)

Request: Would you mind doing N#Cc1ccc(Oc2ccc3nc(C(=O)NC4CCS(=O)(=O)C4)ccc3c2)nc1 (stereo not drawn) [Example 158] as well?
Result: no (0)
